Cited source: ChEMBL document CHEMBL2086385

Recorded measurements of MIC, one per entry
# Test system: Staphylococcus aureus
# assay-protocol: Antibacterial activity against methicillin-resistant Staphylococcus aureus CCARM 3167 clinical isolate after 24 hrs by broth microdilution method
# Assay type: functional
# condition-summary: CCARM 3167, 24 h
Respond with the bare value in µg/mL.

Solved cases below.
{"columns": ["chemical-structure", "MIC / µg/mL"],
 "data": [
  ["O=C(O)[C@H](Cc1ccccc1)N1C(=O)/C(=C\\c2ccc(OCc3ccccc3Cl)cc2)SC1=S", 4],
  ["Cc1ccc(COc2ccc(/C=C3\\SC(=S)N([C@@H](Cc4ccccc4)C(=O)O)C3=O)cc2)cc1", 4],
  ["O=C(/C=C/c1ccc(/C=C2\\SC(=S)N([C@@H](Cc3ccccc3)C(=O)O)C2=O)cc1)c1ccc(Br)cc1", 2],
  ["O=C(/C=C/c1ccc(/C=C2\\SC(=S)N([C@@H](Cc3ccccc3)C(=O)O)C2=O)cc1)c1ccc(Cl)cc1", 2],
  ["O=C(/C=C/c1ccc(/C=C2\\SC(=S)N([C@@H](Cc3ccccc3)C(=O)O)C2=O)cc1)c1ccccc1Br", 2]
]}

Okay, next one:
Find the measured MIC of O=C(O)[C@H](Cc1ccccc1)N1C(=O)/C(=C\c2ccc(OCc3cccc(Br)c3)cc2)SC1=S and report it.
4

====

Recorded measurements of MIC, one per entry
# Test system: Staphylococcus aureus
# assay-protocol: Antibacterial activity against methicillin-resistant Staphylococcus aureus CCARM 3167 clinical isolate after 24 hrs by broth microdilution method
# Assay type: functional
# condition-summary: CCARM 3167, 24 h
Respond with the bare value in µg/mL.

Solved cases below.
{"columns": ["chemical-structure", "unit-abbreviation", "test-result"],
 "data": [
  ["O=C(O)[C@H](Cc1ccccc1)N1C(=O)/C(=C\\c2ccc(OCc3cccc(Cl)c3)cc2)SC1=S", "µg/mL", 4],
  ["CC(=O)Nc1ccc(C(=O)/C=C/c2ccc(/C=C3\\SC(=S)N([C@@H](Cc4ccccc4)C(=O)O)C3=O)cc2)cc1", "µg/mL", 4],
  ["COc1cccc(C(=O)/C=C/c2ccc(/C=C3\\SC(=S)N([C@@H](Cc4ccccc4)C(=O)O)C3=O)cc2)c1", "µg/mL", 8]
]}

Okay, next one:
Look up Staphylococcus aureus data: MIC of O=C(/C=C/c1ccc(/C=C2\SC(=S)N([C@@H](Cc3ccccc3)C(=O)O)C2=O)cc1)c1cccc(Cl)c1 , then report it.
2

====

# Tested on: Staphylococcus aureus
# assay-protocol: Antibacterial activity against quinolone-resistant Staphylococcus aureus CCARM 3519 clinical isolate after 24 hrs by broth microdilution method
# Format: functional
# condition-summary: CCARM 3519, 24 h
measurement-type: MIC (µg/mL)
Respond with the bare value in µg/mL.

{"columns": ["chemical-structure", "MIC (µg/mL)"],
 "data": [
  ["O=C(/C=C/c1ccc(/C=C2\\SC(=S)N([C@@H](Cc3ccccc3)C(=O)O)C2=O)cc1)c1ccc(Br)cc1", 2],
  ["O=C(O)[C@H](Cc1ccccc1)N1C(=O)/C(=C\\c2ccc(OCc3ccc(Cl)cc3)cc2)SC1=S", 4],
  ["Cc1onc(-c2ccccc2)c1C(=O)N[C@@H]1C(=O)N2[C@@H]1SC(C)(C)[C@@H]2C(=O)O", 1],
  ["O=C(O)[C@H](Cc1ccccc1)N1C(=O)/C(=C\\c2ccc(OCc3cccc(Br)c3)cc2)SC1=S", 8]
]}

Find the measured MIC of O=C(O)[C@H](Cc1ccccc1)N1C(=O)/C(=C\c2ccc(OCc3ccccc3)cc2)SC1=S and report it.
8

Find the measured MIC of O=C(/C=C/c1ccc(/C=C2\SC(=S)N([C@@H](Cc3ccccc3)C(=O)O)C2=O)cc1)c1ccccc1F and report it.
8

Find the measured MIC of O=C(/C=C/c1ccc(/C=C2\SC(=S)N([C@@H](Cc3ccccc3)C(=O)O)C2=O)cc1)c1ccc(Cl)cc1Cl and report it.
16

Find the measured MIC of O=C(O)[C@H](Cc1ccccc1)N1C(=O)/C(=C\c2ccc(OCc3ccc(F)cc3)cc2)SC1=S and report it.
8

Find the measured MIC of O=C(/C=C/c1ccc(/C=C2\SC(=S)N([C@@H](Cc3ccccc3)C(=O)O)C2=O)cc1)c1ccccc1 and report it.
4

====

Recorded measurements of MIC, one per entry
# System: Staphylococcus aureus
# assay-protocol: Antibacterial activity against quinolone-resistant Staphylococcus aureus CCARM 3519 clinical isolate after 24 hrs by broth microdilution method
# Assay type: functional
# condition-summary: CCARM 3519, 24 h

Solved cases below.
{"columns": ["chemical-structure", "measurement-type", "test-result"],
 "data": [
  ["Cc1ccc(COc2ccc(C=O)cc2)cc1", "MIC", "> 64 µg/mL"],
  ["O=C1NC(=S)NC(=O)C1=Cc1ccc(/C=C/C(=O)c2ccccc2Cl)cc1", "MIC", "> 64 µg/mL"]
]}

Find the measured MIC of O=Cc1ccc(/C=C/C(=O)c2ccc3ccccc3c2)cc1 and report it.
> 64 µg/mL

Find the measured MIC of O=C1NC(=S)S/C1=C/c1ccc(/C=C/C(=O)c2ccccc2Cl)cc1 and report it.
> 64 µg/mL

Find the measured MIC of O=C1NC(=S)S/C1=C/c1ccc(/C=C/C(=O)c2ccccc2F)cc1 and report it.
> 64 µg/mL

====

Recorded measurements of MIC, one per entry
# System: Staphylococcus aureus
# assay-protocol: Antibacterial activity against methicillin-resistant Staphylococcus aureus CCARM 3167 clinical isolate after 24 hrs by broth microdilution method
# Type: functional
# condition-summary: CCARM 3167, 24 h

Look up Staphylococcus aureus data: MIC of O=Cc1ccc(/C=C/C(=O)c2ccccc2Cl)cc1 , then report it.
> 64 µg/mL

Look up Staphylococcus aureus data: MIC of Cc1onc(-c2ccccc2)c1C(=O)N[C@@H]1C(=O)N2[C@@H]1SC(C)(C)[C@@H]2C(=O)O [OXACILLIN] , then report it.
> 64 µg/mL

Look up Staphylococcus aureus data: MIC of O=Cc1ccc(/C=C/C(=O)c2ccc(F)cc2)cc1 , then report it.
> 64 µg/mL

====

Recorded measurements of MIC, one per entry
# Test system: Staphylococcus aureus
# assay-protocol: Antibacterial activity against methicillin-resistant Staphylococcus aureus CCARM 3167 clinical isolate after 24 hrs by broth microdilution method
# Assay type: functional
# condition-summary: CCARM 3167, 24 h

{"columns": ["chemical-structure", "MIC"],
 "data": [
  ["O=Cc1ccc(/C=C/C(=O)c2ccc(Br)cc2)cc1", "> 64 µg/mL"],
  ["O=C1NC(=S)S/C1=C/c1ccc(/C=C/C(=O)c2ccccc2F)cc1", "> 64 µg/mL"],
  ["O=Cc1ccc(/C=C/C(=O)c2cccc(Br)c2)cc1", "> 64 µg/mL"]
]}

Find the measured MIC of O=Cc1ccc(/C=C/C(=O)c2ccc(Cl)cc2)cc1 and report it.
> 64 µg/mL

Find the measured MIC of O=Cc1ccc(/C=C/C(=O)c2ccccc2)cc1 and report it.
> 64 µg/mL

Find the measured MIC of O=Cc1ccc(OCc2ccc(F)cc2)cc1 and report it.
> 64 µg/mL
